Hello, the source for this data is the supplement of paper PMC12645437, in case you need it.

Listed next: entries and their corresponding log2 fold change of degron read counts.
Target: T1, CRBN, Q96SW2;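 further: pooled lentiviral library of zinc finger degron-EGFP fusions in mCherry-positive Jurkat cells, FACS-sorted after compound exposure, with degron abundance counted by next-generation sequencing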
T1 chain: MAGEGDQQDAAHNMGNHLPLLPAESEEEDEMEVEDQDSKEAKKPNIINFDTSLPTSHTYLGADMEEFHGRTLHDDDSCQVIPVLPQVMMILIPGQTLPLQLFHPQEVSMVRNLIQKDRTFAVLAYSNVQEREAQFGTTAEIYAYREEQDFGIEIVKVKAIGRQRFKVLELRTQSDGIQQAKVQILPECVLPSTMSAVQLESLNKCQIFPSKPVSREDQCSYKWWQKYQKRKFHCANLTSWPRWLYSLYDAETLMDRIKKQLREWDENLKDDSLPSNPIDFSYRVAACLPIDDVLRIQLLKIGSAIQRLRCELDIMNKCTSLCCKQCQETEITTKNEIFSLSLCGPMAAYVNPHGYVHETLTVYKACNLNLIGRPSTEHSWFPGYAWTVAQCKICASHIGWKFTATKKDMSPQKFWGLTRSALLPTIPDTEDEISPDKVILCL
Assay: log2 fold change of degron read counts, EGFP-low vs EGFP+ sorted cells (limma voom), compound-induced degradation; higher = more compound-induced degradation of the degron-EGFP fusion; degrons are variants of IKZF1/3 zinc finger 2; compound dose not given here
Conditions: Jurkat; 18 h; compound: compound 33 (diphenyl IMiD analogue)
In all, about 8,300 sequences were measured (“log2 fold change of degron read counts, EGFP-low vs EGFP+ sorted cells (limma voom), compound-induced degradation”: median about -1.1, highest 2% from about 3.2 on). The full list was thinned out, with the highest values kept by preference.
recorded metric: log2 fold change of degron read counts

{"columns": ["query sequence", "measured number"],
 "data": [
  ["LDCEICGFTCTQKGNLLRHIKL [46L_47D_49E_50I_52G_53F_54T_55C_67L_, Q9UKT9]", -0.732],
  ["FDCNVCGAYFTQKGNLLRHIKL [46F_47D_49N_50V_52G_53A_54Y_55F_67L_, Q9UKT9]", -0.374],
  ["LYCEICGFTCTQKGNLLRHIKL [46L_47Y_49E_50I_52G_53F_54T_55C_67L_, Q9UKT9]", 3.19],
  ["LQCEICGFTCTQKGNLLRHIKL [46L_47Q_49E_50I_52G_53F_54T_55C_67L_, Q9UKT9]", 2.34],
  ["FTCNQCGRLFTQKGNLLRHIKL [46F_47T_49N_50Q_52G_53R_54L_55F_67L_, Q9UKT9]", -3.15],
  ["LWCEICGFTCTQKGNLLRHIKL [46L_47W_49E_50I_52G_53F_54T_55C_67L_, Q9UKT9]", 3.08]
]}
